Provenance of the data: the RNAGym collection of RNA variant scans (doi:10.1093/nar/gkz1192)

B1: CPEB3 Ribozyme (parent)
chain: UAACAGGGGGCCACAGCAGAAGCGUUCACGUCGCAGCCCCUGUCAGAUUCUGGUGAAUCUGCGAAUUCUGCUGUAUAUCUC

- Variants of: B1
- test.description: self-cleavage, relative activity (ratio to wild type); higher = more cleavage; in vitro, sequencing
Parameter: self-cleavage. Scope: all listed entries.
Provide a numeric answer; units are not to be included.

Please review the following examples before continuing.
[
  {
    "variant.descriptor": "A45U A75U",
    "self-cleavage": 0.55
  },
  {
    "variant.descriptor": "G55U A56U",
    "self-cleavage": 0.7
  },
  {
    "variant.descriptor": "U1A U72C",
    "self-cleavage": 1.02
  },
  {
    "variant.descriptor": "G16A G30C",
    "self-cleavage": 0.05
  },
  {
    "variant.descriptor": "C14A U41C",
    "self-cleavage": 1.22
  }
]

# input for lookup
Fill in: self-cleavage of U51G U76C is ___
1.17
